Source of measurements: patent EP4631938A1

# TARGET SYSTEM: human recombinant 5-HT2A receptor (Homo sapiens, UniProt P28223)
# Construct: expressed in transfected cells; host or cells: Jump-In HEK cells (membrane preparation)
# Sequence (P28223 whole entry): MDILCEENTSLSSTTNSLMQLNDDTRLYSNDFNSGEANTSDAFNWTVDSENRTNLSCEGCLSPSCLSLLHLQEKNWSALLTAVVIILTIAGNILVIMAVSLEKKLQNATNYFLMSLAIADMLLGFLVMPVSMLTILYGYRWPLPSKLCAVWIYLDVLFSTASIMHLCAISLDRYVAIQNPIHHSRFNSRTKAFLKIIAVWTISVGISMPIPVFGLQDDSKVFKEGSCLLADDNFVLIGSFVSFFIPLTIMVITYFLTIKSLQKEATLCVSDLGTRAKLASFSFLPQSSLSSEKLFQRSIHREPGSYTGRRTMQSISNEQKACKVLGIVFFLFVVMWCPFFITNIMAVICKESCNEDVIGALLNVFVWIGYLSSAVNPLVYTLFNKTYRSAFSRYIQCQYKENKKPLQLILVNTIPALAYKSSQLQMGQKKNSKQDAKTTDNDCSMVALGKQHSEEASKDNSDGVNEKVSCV
# PROCEDURE DETAILS: Test Example 1-2: 5-HT2A receptor binding inhibition test ([3H]-Ketanserin; non-specific ligand Ketanserin)
# EXPERIMENTAL CONDITIONS: [3H]-Ketanserin; non-specific binding with 500 µmol/L Ketanserin; room temperature (25°C), 1.5 hours; read-out: h 5-HT2A Ki
# Method: The Kd value is calculated when the lot of the cell membrane is changed. […] The radioactivity of [^3H]-Ketanserin bound to the 5-HT2A receptor is measured using Microbeta2 (PerkinElmer) at a measurement time of 1 min/well. The Saturation curve is drawn from the measured value, and the Kd value is calculated from the slope of the Scatchard Plot. […]
Recorded Ki for the following molecules

# MOLECULE, VALUE UNITS, Ki
measured = [
    ("COCc1nc(C)c(-c2cc(Nc3ncc(OC(F)F)cc3Cl)ncc2OCCO)c(C)n1 [Compound I-231]", "nM", 3.78),
    ("Cn1ncc(Br)c1-c1cc(Nc2ccc(CC(F)(F)F)cn2)ccc1OCCO [Compound I-094]", "nM", 0.258),
    ("Cc1cc(OC(F)(F)F)ccc1Nc1ncc(OCCO)c(-c2c(Br)cnn2C)n1 [Compound I-346]", "nM", 0.24),
    ("Cc1nc(C)c(-c2cc(Nc3ccc(-c4ccc(Cl)cc4)cn3)ncc2OCCO)c(C)n1 [Compound I-310]", "nM", 0.194),
]

---

# TARGET SYSTEM: human recombinant 5-HT2C receptor (Homo sapiens)
# Construct: expressed in transfected cells; host or cells: Jump-In HEK cells (membrane preparation)
# PROCEDURE DETAILS: Test Example 2: 5-HT2C receptor binding inhibition test ([3H]-Mesulergine; non-specific ligand Serotonin HCl)
# EXPERIMENTAL CONDITIONS: human serotonin 5-HT2C receptor binding activity
Classes by Ki: class 0: < 2 nM; class 1: ≥ 2 nM and < 6 nM; class 2: ≥ 6 nM

# COMPOUND, LABEL
records = [
    ("COCc1nc(C)c(-c2cc(Nc3ncc(-c4cnn(C(F)F)c4)cc3Cl)ncc2OCCO)c(C)n1", "class 2"),
    ("Cc1nc(COC2CCCOC2)nc(C)c1-c1cc(Nc2ncc(C(F)(F)F)cc2Cl)ncc1OCCO (racemic)", "class 1"),
    ("Cc1cc(OC(F)(F)F)ccc1Nc1ncc(OCCO)c(-c2c(Br)cnn2C)n1", "class 0"),
    ("COc1nc(C)nc(OC)c1-c1cc(Nc2ncc(C(F)(F)F)cc2Cl)ncc1OCCO", "class 2"),
    ("Cn1ncc(Br)c1-c1cc(Nc2ccc(OC(F)(F)F)cn2)ncc1OCCO", "class 0"),
    ("COCc1nc(C)c(-c2cc(Nc3ncc(OC(F)(F)F)cc3C)ncc2OCCO)c(C)n1", "class 0"),
    ("Cc1nc(OCC(F)F)nc(C)c1-c1cc(Nc2ncc(C(F)(F)F)cc2Cl)ncc1OCCO", "class 0"),
    ("Cn1ncc(Br)c1-c1nc(Nc2ccc(C#N)cc2F)ncc1OCCO", "class 2"),
    ("Cc1nc(C)c(-c2cc(Nc3ncc(C(F)(F)F)cc3C)ncc2OCCO)c(C)n1", "class 1"),
    ("COCc1nc(C)c(-c2cc(Nc3ncc(-c4ccc(C#N)nc4)cc3Cl)ncc2OCCO)c(C)n1", "class 1"),
    ("Cc1nc(C)c(-c2cc(Nc3ncc(C(F)(F)F)cc3F)ncc2OCCO)c(C)n1", "class 1"),
    ("Cc1nc(C)c(-c2cc(Nc3ncc(OC(F)(F)F)cc3F)c(F)cc2OCCO)c(C)n1", "class 1"),
    ("Cc1nc(N2CCCC2=O)nc(C)c1-c1cc(Nc2ncc(C(F)(F)F)cc2Cl)ncc1OCCO", "class 2"),
    ("COCc1nc(C)c(-c2cc(Nc3ccc(OCc4ccccc4)cn3)ncc2OCCO)c(C)n1", "class 2"),
    ("COCc1nc(C)c(-c2nc(Nc3ccc(C(F)(F)F)c(C)n3)c(F)cc2OCCO)c(C)n1", "class 0"),
    ("Cn1ncc(Br)c1-c1cc(Nc2ncc(C3CC3)cn2)ncc1OCCO", "class 2"),
    ("Cn1ncc(Br)c1-c1cc(Nc2ncc(OC(F)F)cn2)ncc1OCCO", "class 1"),
    ("COCc1nc(C)c(-c2cc(Nc3ncc(-c4ccc(F)c(Cl)c4)cc3Cl)ncc2OCCO)c(C)n1", "class 0"),
    ("COCc1nc(C)c(-c2cc(Nc3ncc(OC(F)(F)F)cc3OC)ncc2OCCO)c(C)n1", "class 1"),
    ("Cc1nc(C)c(-c2nc(Nc3ccc(OC(F)(F)F)cc3)ncc2OCCO)c(C)n1", "class 1"),
    ("Cc1cc(OC(F)F)cnc1Nc1cc(-c2c(C)cnn2C)c(OCCO)cn1", "class 2"),
    ("Cn1ncc(Br)c1-c1cc(Nc2nc3ccccc3s2)ncc1OCCO", "class 2"),
    ("Cc1nc(C)c(-c2cc(Nc3cc(OC(F)F)c(Cl)cn3)ncc2OCCO)c(C)n1", "class 2"),
    ("Cc1nc(C)c(-c2cc(Nc3ccc(-c4ccc(Cl)cc4)cn3)ncc2OCCO)c(C)n1", "class 0"),
    ("Cn1ncc(Br)c1-c1nc(Nc2ccc(C(F)(F)F)nc2)c(F)cc1OCCO", "class 2"),
    ("Cc1nc(COC2CC2)nc(C)c1-c1cc(Nc2ncc(C(F)(F)F)cc2Cl)ncc1OCCO", "class 0"),
    ("COCc1nc(C)c(-c2cc(Nc3ncc(-c4ncc(OC)cn4)cc3Cl)ncc2OCCO)c(C)n1", "class 1"),
    ("Cn1ncc(Cl)c1-c1cc(Nc2ncc(OC(F)F)cc2F)ncc1OCCO", "class 0"),
    ("COCc1nc(C)c(-c2cc(Nc3ncc(-c4nc(C(F)(F)F)cs4)cc3Cl)ncc2OCCO)c(C)n1", "class 0"),
    ("Cc1nc(OC2CC2)nc(C)c1-c1cc(Nc2ncc(C(F)(F)F)cc2Cl)ncc1OCCO", "class 1"),
    ("Cc1nc(C)c(-c2cc(Nc3ccc(-c4ccccc4)cn3)ncc2OCCO)c(C)n1", "class 1"),
    ("COCc1nc(C)c(-c2nc(Nc3ccc(C4CCC4)cn3)c(F)cc2OCCO)c(C)n1", "class 1"),
]

---

# TARGET SYSTEM: human recombinant 5-HT2C receptor (Homo sapiens)
# Construct: expressed in transfected cells; host or cells: Jump-In HEK cells (membrane preparation)
# Sequence (P28335 33-458): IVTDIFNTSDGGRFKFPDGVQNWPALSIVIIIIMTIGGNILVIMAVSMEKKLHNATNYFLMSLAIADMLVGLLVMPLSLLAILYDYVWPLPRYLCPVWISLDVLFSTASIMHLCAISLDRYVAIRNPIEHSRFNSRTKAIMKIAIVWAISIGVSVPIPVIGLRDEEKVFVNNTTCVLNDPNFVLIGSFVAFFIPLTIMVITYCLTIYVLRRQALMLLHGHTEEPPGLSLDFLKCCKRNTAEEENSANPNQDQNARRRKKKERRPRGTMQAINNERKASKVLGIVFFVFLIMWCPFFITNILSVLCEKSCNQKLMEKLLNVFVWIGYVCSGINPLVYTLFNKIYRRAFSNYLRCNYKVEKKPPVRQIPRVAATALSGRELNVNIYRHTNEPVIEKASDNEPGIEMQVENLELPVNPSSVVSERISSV
# PROCEDURE DETAILS: Test Example 2-2: 5-HT2C receptor binding inhibition test ([3H]-Mesulergine; non-specific ligand Ketanserin)
# EXPERIMENTAL CONDITIONS: non-specific binding with 500 µmol/L Ketanserin, 37°C, 2 hours
pKi: −log10 of the molar value.
Assign class by pKi: not lower than 9 means 1; lower than 9 means -1.

# QUERY SMILES, LABEL
rows = [
    ("Cc1cnn(C)c1-c1cc(Nc2ncc(C(F)(F)F)cc2F)c(Oc2ccn(C)n2)cc1OCCO", -1),
    ("Cc1nc(C)c(-c2cc(Nc3ccc(C(F)(F)F)cn3)c(F)cc2OCCO)c(C)n1", -1),
    ("Cn1ncc(Br)c1-c1cc(Nc2ccc(OC(F)F)cn2)ccc1OCCO", 1),
    ("Cn1ncc(C#N)c1-c1cc(Nc2ncc(Cl)cc2F)ccc1OCCO", -1),
    ("Cn1ncc(Br)c1-c1cc(Nc2nc3ccccc3n2C)ccc1OCCO", -1),
    ("Cc1ncnc(C)c1-c1cc(Nc2ncc(Cl)cc2F)ccc1OCCO", -1),
    ("Cc1nc(C)c(-c2cc(Nc3ncc(C(F)(F)F)cc3F)cnc2OCCO)c(C)n1", -1),
    ("Cn1ncc(C#N)c1-c1cc(Nc2ncc(C(F)(F)F)cc2F)ncc1OCCO", -1),
    ("Cn1ncc(Br)c1-c1cc(Nc2ncc(Cl)cc2F)ccc1OCCO", 1),
    ("Cn1ncc(F)c1-c1cc(Nc2ncc(C(F)(F)F)cc2F)ccc1OCCO", -1),
    ("Cc1cnn(C)c1-c1cc(Nc2ccc(C(F)(F)F)cn2)c(F)cc1OCCO", -1),
    ("Cn1ncc(Br)c1-c1cc(Nc2nc3cc(Cl)ccc3s2)ccc1OCCO", 1),
    ("Cc1cnn(C)c1-c1cc(Nc2ccc(C(F)(F)F)cn2)c(Oc2ccn(C)n2)cc1OCCO", -1),
    ("Cn1ncc(Br)c1-c1cc(Nc2nccc3ccccc23)ccc1OCCO", -1),
    ("Cc1cnn(C)c1-c1cc(Nc2ncc(C(F)(F)F)cc2F)cnc1OCCO", -1),
    ("Cn1ncc(C#N)c1-c1cc(Nc2ncc(C(F)(F)F)cc2F)cc(F)c1OCCO", -1),
    ("Cn1ncc(Br)c1-c1cc(Nc2nc3ccc(F)cc3n2C)ccc1OCCO", -1),
    ("Cn1ncc(Br)c1-c1cc(Nc2ncc(C3CC3)cn2)ccc1OCCO", -1),
    ("Cc1cnccc1-c1cc(Nc2ncc(C(F)(F)F)cc2F)ccc1OCCO", -1),
    ("Cn1ncc(Cl)c1-c1cc(Nc2ncc(C(F)(F)F)cc2F)ccc1OCCO", 1),
    ("C#Cc1cnn(C)c1-c1cc(Nc2ncc(C(F)(F)F)cc2F)ccc1OCCO", 1),
    ("Cc1cccc(C)c1-c1cc(Nc2ncc(C(F)(F)F)cc2F)ccc1OCCO", -1),
    ("Cn1ncc(F)c1-c1cc(Nc2ncc(C(F)(F)F)cc2F)c(F)cc1OCCO", -1),
    ("Cn1ncc(C(F)(F)F)c1-c1cc(Nc2ncc(C(F)(F)F)cc2F)ccc1OCCO", 1),
    ("OCCOc1ccc(Nc2ncc(C(F)(F)F)cc2F)cc1-c1c(F)cccc1Cl", -1),
    ("Cn1ncc(Br)c1-c1cc(Nc2ncc(C(F)(F)F)cc2F)ccc1OCCO", 1),
    ("Cn1ncc(Br)c1-c1cc(Nc2ncc(C(F)(F)F)cc2F)cnc1OCCO", 1),
]
